Each entry below carries its reported inhibition.
Assay: fluorescence retest of MPTP screen hits in isolated mitochondria, single concentration (AID 624504);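 also: 0% = DMSO vehicle and 100% = positive control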
Conditions: membrane potential, Rhodamine 123 fluorescence, at 10 µM, active compounds read high
In all, about 5,000 compounds went through this assay and about 3,900 (78%) were called active. The set was probably picked from earlier hits. The list is a sample of the results.
ATTRIBUTE_MEASURED: inhibition (%)

* c1ccc2c(c1)C(=NC1CCCCC1)NC2=NC1CCCCC1 | 92.1
* COc1ccccc1Oc1ccc(S(=O)(=O)Nc2cccnc2)cc1 | 70.1
* Cc1c(NC(=S)NCc2ccc(F)cc2)cccc1[N+](=O)[O-] | 78.8
* CC1(C)CC(=O)c2sc(N)nc2C1 | 1.93
* CCCCc1nc(NCCN)c(C#N)c2c1CSC(C)(C)C2 | -9.33
* CC(C)c1ccc(NC(=S)NC2CC3C=CC2C3)cc1 (configuration not stated) | 91
* COc1cc(CNCc2ccc(OC)c3ccccc23)cc(OC)c1OC | 75.8
* Cc1ccc(NC(=O)COc2ccc(-n3ccnc3)cc2)cc1Cl | 94.1
* Cc1cc(C)cc(NC(=S)NCc2ccc(F)cc2)c1 | 57.4
* COc1ccc(CC(=O)Nc2nc(-c3ccc(F)c(F)c3)cs2)cc1OC | 94.5
* Cn1nc(C(F)(F)F)c(C(=O)Nc2cccc(C(F)(F)F)c2)c1SCc1ccc(Cl)cc1 | 63.4
* O=C(NC(Nc1nc2ccc([N+](=O)[O-])cc2s1)(C(F)(F)F)C(F)(F)F)c1ccccc1 | 81.4
* Cc1nc(CNS(=O)(=O)c2ccc(Oc3ccccc3)cc2)cs1 | 88.2
* Nc1nnc(SCC(=O)Nc2ccc3nc(SCC(=O)Nc4ccccc4)sc3c2)s1 | 77.9
* COc1ccc(S(=O)(=O)NCCCCOc2ccc(Cl)cc2)cc1 | 88.4
* COc1cc(CC(=O)Nc2nc(-c3ccc(F)c(F)c3)cs2)cc(OC)c1OC | 93.2
* O=C(Nc1nnc(SCc2ccccc2Cl)s1)c1cccc([N+](=O)[O-])c1 | 79.5
* O=C(/C=C(O)/C=C/c1ccc(O)cc1)/C=C/c1ccc(O)cc1 | 70.7
* Cc1cc(C)cc(OCC(=O)Nc2nc3ccc([N+](=O)[O-])cc3s2)c1 | 62.3
* O=C(/C(=C/c1cccc(Cl)c1)c1nc2ccccc2[nH]1)c1ccccc1 | 77.4
* CCC(C)(C)c1ccc(Oc2ccc(NC(=O)COC(=O)C3=COCCO3)cc2)cc1 | 55.3
* O=C(CC(O)(C(F)(F)F)C(F)(F)F)Nc1ccc(Cl)c(Cl)c1 | 84.9

---

Assay: fluorescence retest of MPTP screen hits in isolated mitochondria, single concentration (AID 624504);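 also: 0% = DMSO vehicle and 100% = positive control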
Conditions: membrane potential, Rhodamine 123 fluorescence, at 10 µM, active compounds read high
In all, about 5,000 compounds went through this assay and about 3,900 (78%) were called active. So high a share suggests a set chosen from earlier hits. Not all results are given here.
ATTRIBUTE_MEASURED: inhibition (%)

* O=C(Nc1ccc(Cl)cc1)Nc1ccc(Oc2cccnc2)nc1 | 94.2
* COc1ccc(NC(=O)Nc2ccc3nsnc3c2)cc1 | 84.7
* O=[N+]([O-])c1cc(Cl)cc(/C=N/NC(=S)Nc2cc(S(=O)(=O)N3CCOCC3)ccc2Cl)c1O | 5.99
* S=C(NCCCc1ccccc1)Nc1ccc(Br)cc1 | 91.8
* N#Cc1ccc(C(=O)Nc2nc(-c3cccs3)c(C(=O)C(F)(F)F)s2)cc1 | 109
* c1ccc2c(c1)CSc1sccc1C2=C1CCNCC1 | -11.2
* O=c1c(-c2ccc3c(c2)OCCO3)c(C(F)(F)F)oc2cc(O)cc(O)c12 | 80.7
* COc1ccc2sc(N(CCCN(C)C)C(=O)c3ccc(S(=O)(=O)N(C)C4CCCCC4)cc3)nc2c1 | -15.4
* Cc1cc(C(=O)CSc2nc(N)cc(=O)[nH]2)c(C)n1-c1cccc(F)c1 | 59
* CC(NC(=S)Nc1ccccc1)C1COc2ccccc2O1 (configuration not stated) | 87
* CC(C)S(=O)(=O)c1csc(NC(=O)Nc2ccc(Cl)cc2)c1Cl | 90.1
* CCCCOC(=O)CNc1nnc(SCC(=O)OCC)[nH]c1=O | -7.97
* CSc1nccc(NC(=O)c2ccc(C(C)(C)C)cc2)n1 | 91.4
* O=C(c1ccncc1)N1CCN(S(=O)(=O)c2cc(C(F)(F)F)cc(C(F)(F)F)c2)CC1 | 99.7
* Cc1onc(-c2ccccc2)c1C(=O)NNC(=S)NC(=O)c1ccc(F)cc1 | 2.46
* O=C(c1ccc(Cl)cc1)c1ccc(OCC(O)CN2CCCCC2)cc1 (configuration not stated) | -2.35
* CC(=N\NC(=O)c1cc(Br)ccc1O)/C(=N/O)C(=O)Nc1ccccc1 | 78.4
* Cc1oc2c(F)c(F)c(F)c(F)c2c1S(=O)(=O)Nc1cccc(C(F)(F)F)c1 | 83.5
* O=C(Nc1cccc(F)c1)c1coc(=O)c(Br)c1 | 77.9
* Cc1cc(C=O)c(C)n1-c1ccc(NC2CCCCC2)c([N+](=O)[O-])c1 | 41.9
* Cc1ccc(-c2nc(-c3cccnc3)sc2CC(=O)Nc2ccc(C)c(Cl)c2)cc1 | 90.8
* O=C(Cc1c(F)cccc1Cl)Nc1ncc([N+](=O)[O-])s1 | 98.1

---

Each entry below carries its reported inhibition.
Test: fluorescence retest of MPTP screen hits in isolated mitochondria, single concentration (AID 624504);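 also: 0% = DMSO vehicle and 100% = positive control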
Settings: membrane potential, Rhodamine 123 fluorescence, at 10 µM, active compounds read high
Screen size: about 5,000 compounds; about 3,900 (78%) were called active. The set was probably picked from earlier hits. Only a sample is shown.
ATTRIBUTE_MEASURED: inhibition (%)

- Fc1ccc2[nH]c3c(N4CCSCC4)ncnc3c2c1: 94
- CCOC(=O)c1ccc(NC(=O)Cn2cnc3cc(C)c(C)cc32)cc1: 88.8
- COc1cc(NC(=O)c2cncc(-c3ccc(C#N)cc3)c2)cc(C(=O)Nc2cccc(C(F)(F)F)c2)c1: 58.3
- O=C(/C=C/c1ccc(F)cc1)Nc1cccc(S(=O)(=O)Nc2cccc(C(F)(F)F)c2)c1: 69.5
- Oc1c(Br)cccc1/C=N/Nc1c(F)c(F)c(F)c(F)c1F: 72.3

---

Each entry below carries its reported inhibition.
Assay: fluorescence retest of MPTP screen hits in isolated mitochondria, single concentration (AID 624504);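 also: 0% = DMSO vehicle and 100% = positive control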
Settings: membrane potential, Rhodamine 123 fluorescence, at 10 µM, active compounds read high
The whole screen tested about 5,000 compounds, of which about 3,900 (78%) were called active. So high a share suggests a set chosen from earlier hits. Not all results are given here.
ATTRIBUTE_MEASURED: inhibition (%)

- O=c1c2ccccc2nc2n1C(CSCc1cccc(C(F)(F)F)c1)CS2 (configuration not stated): 80.9
- O=C(Nc1ccc2ccccc2c1)Nc1ccc2snnc2c1: 47.9
- CN(C(=O)Nc1ccc(Cl)cc1)n1cnc2ccccc2c1=O: 89.2
- O=c1c2ccccc2nc2n1C(CSCc1ccccc1)CS2 (configuration not stated): 26.1
- CCCOc1ccc(C(=O)C(CCC(CNCC)C(=O)c2ccc(OCCC)cc2)CNCC)cc1 (configuration not stated): -13.8
- CC(C)(C)c1ccc(SCCc2ccncc2)cc1: 98.5
- O=C(Nc1cccc(Cl)c1)Nc1ccccc1NS(=O)(=O)c1cccs1: 89.6
- Cc1cc(C)c(SCCc2ccncc2)c(C)c1: 95.5
- Fc1cc(F)c2nc(Nc3nc4c(F)cccc4s3)sc2c1: 69.9
- CCc1ccc(NC(=O)Nc2ccncc2)cc1: 71.8
- O=C(NNC(=O)c1csc(-c2cccnc2)n1)Nc1ccc(Cl)cc1: 68.5
- CN1CCC[C@@H]1CCO[C@](C)(c1ccccc1)c1ccc(Cl)cc1: -12.2
